measurement.conditions: pH 2.7
Marks after values point to notes of the source that are not given here.
Quick reference for Log P among some compounds

Some entries whose results are on file:
CCOC(=O)C(C#N)=C(NCc1ncccc1Cl)c1cccnc1Cl [Compound 1413]    2.77^[a]
COC(=O)CC(C)NC(=C(C#N)C(=O)OC)c1cccnc1Cl (centres unmarked)    2.11^[a]
COC(=O)C(C#N)=C(NC(C)c1ccccn1)c1sc(C)nc1C(F)(F)F (racemic)    2.77^[a]
CC#CC(C)(C)NC(=C(C#N)C(=O)OCC)c1cn(C)nc1C(F)F    2.9^[a]
CCOC(=O)C(C#N)=C(NC(C)c1c(C)nn(C)c1C)c1cccnc1Cl (racemic)    2.3^[a]
CCOC(=O)C(C#N)=C(NC(C)c1cc(C(F)(F)F)c(Cl)cn1)c1cccnc1Cl (centres unmarked)    3.9^[a]
CCOC(=O)C(C#N)=C(NC(C)C(=O)NC)c1ccnc(Cl)c1Cl (centres unmarked) [Compound 730]    2.08^[a]

Looking up CCOC(=O)C(C#N)=C(NC(C)C1CC1)c1cc(Cl)sc1Cl (centres unmarked) [Compound 1587] , I see its Log P listed as 4.43^[a]
